The origin of these recorded values is PubChem BioAssay AID1159580.

- test.summary: chemical genetic growth profiling, strain panel (AID 1159580);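 further: tested at 20 µM; growth read once vehicle control cultures reached saturation at 30 °C; 1 = growth at the plate median or of vehicle wells; lower values mean less growth of the strain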
- measurement.context: S. cerevisiae deletion strains, growth OD, locus YDL108W, strain KIN28, active compounds read low
Among all 5,500 compounds or so, about 2,000 (36%) were called active. Roughly 18% stayed inconclusive and do not appear here. Some of the results follow.
Reported normalized growth values for a set of compounds

Below are worked cases with known answers.
>>> measured_value("O=C(OCc1ccccc1Br)c1cc([N+](=O)[O-])cc([N+](=O)[O-])c1")
"0.969 (inactive)"
>>> measured_value("O=C(Nc1ccc(SC(F)(F)F)cc1)Nc1ccc(Oc2cccc(C(F)(F)F)c2)nc1")
"0.993 (inactive)"
>>> measured_value("Cc1cc(Br)c(O)c(/C=N\\NC(=S)NC(C)(C)C)c1")
"0.969 (inactive)"
>>> measured_value("COc1ccc(N=C2SCC(c3ccc(C)cc3)=NN2CCO)cc1")
"0.981 (inactive)"
>>> measured_value("ONC(=Nc1ccccc1Cl)c1ccccc1Cl")
"0.979 (inactive)"
>>> measured_value("COc1ccc(Br)c(C(=O)/C(C#N)=C/c2cccs2)c1")
"0.904 (inactive)"
>>> measured_value("O=S(=O)(c1cc(Cl)ccc1Cl)N1CCc2ccccc2C1")
"0.98 (inactive)"
>>> measured_value("FC(F)(F)Sc1ccc(OCc2n[nH]c(=S)n2-c2ccccc2)cc1")
"0.987 (inactive)"
>>> measured_value("CN(C)/C=C1\\CSc2ccc(Cl)cc2C1=O")
"0.947 (inactive)"
>>> measured_value("N/C(=N/OC(=O)c1ccc([N+](=O)[O-])cc1)c1c(Cl)cccc1Cl")
"0.952 (inactive)"

Look up normalized growth: Cc1cc(-c2onc(C)c2C(=O)Sc2ccccc2)no1
0.962 (inactive)

Proceed to OC(COCc1ccccc1)Cn1c2ccccc2c2ccccc21 (stereo not given)
0.952 (inactive)

Now try O=C(Nc1cc2ccccc2s1)N1CCN(Cc2c(F)cccc2Cl)CC1 .
0.989 (inactive)

Check C/C(=N/NC(N)=S)c1csc(-c2ccccc2)n1 too.
0.942 (inactive)

Input O=C(O/N=C1/CCCc2[nH]c3ccccc3c21)c1ccc(Cl)cc1Cl
0.972 (inactive)

Check O=C1OC(c2ccccc2)=C/C1=C/c1ccccc1 too.
0.925 (inactive)

Next up: Clc1cccc(Cl)c1C1CC(c2ccccc2)=Nc2ccccc2S1 (stereo not given)
0.989 (inactive)

Moving on to the next compound: N/C(=N/OC(=O)Nc1cccc(C(F)(F)F)c1)c1ccc(OC(F)(F)F)cc1
0.975 (inactive)

O=S(=O)(Nc1ccccc1Sc1c(Cl)cncc1Cl)c1ccc(Cl)cc1 , same question.
0.985 (inactive)

How about N#C/C(N=Cc1cc(Cl)cc(Cl)c1O)=C(\C#N)N=Cc1cc(Cl)cc(Cl)c1O ?
0.926 (inactive)

Same lookup for O=c1cc(CSc2ccc(Cl)cc2)c2ccc(O)cc2o1 , please.
0.955 (inactive)

What about O=c1[nH][nH]c(=O)n1CCCc1cc2cccc3ccc4cccc1c4c32 ?
0.988 (inactive)

Now consider CCOC(=O)NC(=S)Nc1ccc(C(C)(C)C)cc1NC(=S)NC(=O)OCC and answer again.
0.985 (inactive)

Same for CC(C)/C(=N/OC(=O)c1ccc([N+](=O)[O-])cc1)c1ccccc1
0.962 (inactive)

// same read-out, input: CCCCCCCCCCCCSc1ncn[nH]1
0.969 (inactive)
